Molecular target: TYK2 (Homo sapiens (Human), UniProt P29597)
Sequence (P29597 whole entry): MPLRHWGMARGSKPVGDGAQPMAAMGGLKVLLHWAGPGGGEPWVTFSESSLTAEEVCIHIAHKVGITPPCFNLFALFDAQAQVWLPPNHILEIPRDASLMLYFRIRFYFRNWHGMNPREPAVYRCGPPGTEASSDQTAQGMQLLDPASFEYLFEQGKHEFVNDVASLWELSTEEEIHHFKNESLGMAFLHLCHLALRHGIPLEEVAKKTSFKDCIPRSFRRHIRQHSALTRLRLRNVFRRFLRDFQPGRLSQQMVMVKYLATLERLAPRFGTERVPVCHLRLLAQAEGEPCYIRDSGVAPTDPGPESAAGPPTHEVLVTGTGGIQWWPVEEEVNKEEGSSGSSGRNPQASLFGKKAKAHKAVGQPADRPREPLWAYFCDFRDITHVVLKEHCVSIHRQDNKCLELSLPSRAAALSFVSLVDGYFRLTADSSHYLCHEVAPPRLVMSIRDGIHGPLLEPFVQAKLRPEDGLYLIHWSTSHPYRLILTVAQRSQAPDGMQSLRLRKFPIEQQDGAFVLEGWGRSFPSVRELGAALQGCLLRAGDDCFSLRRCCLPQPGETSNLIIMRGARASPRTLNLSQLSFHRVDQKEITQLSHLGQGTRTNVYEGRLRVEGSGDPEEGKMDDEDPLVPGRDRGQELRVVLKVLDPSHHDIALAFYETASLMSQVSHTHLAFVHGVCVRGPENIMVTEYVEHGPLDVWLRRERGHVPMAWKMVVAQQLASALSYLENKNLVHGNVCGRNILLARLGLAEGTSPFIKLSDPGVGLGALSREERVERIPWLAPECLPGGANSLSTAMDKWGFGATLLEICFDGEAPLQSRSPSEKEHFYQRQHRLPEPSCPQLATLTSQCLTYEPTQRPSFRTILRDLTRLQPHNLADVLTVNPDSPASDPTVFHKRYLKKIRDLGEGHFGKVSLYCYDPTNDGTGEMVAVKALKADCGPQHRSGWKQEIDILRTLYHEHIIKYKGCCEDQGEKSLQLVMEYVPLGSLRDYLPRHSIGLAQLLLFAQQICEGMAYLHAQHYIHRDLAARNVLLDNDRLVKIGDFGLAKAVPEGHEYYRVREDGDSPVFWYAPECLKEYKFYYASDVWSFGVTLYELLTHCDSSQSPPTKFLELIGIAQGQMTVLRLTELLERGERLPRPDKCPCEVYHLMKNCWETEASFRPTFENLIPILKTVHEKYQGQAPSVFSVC
Assay: Tyk2 radioactive kinase assay
Assay type: biochemical
Details: ATP 10 μM
pKi: −log10 of the molar value.
observed-property: pKi

Known results for molecules:
INSERT INTO results (molecule, result) VALUES
  ('N#Cc1cccc(F)c1-c1cc(-n2cc(F)c(N3CC[C@@H](O)C3)n2)c2c(n1)CNC2=O', '8.00 to 10.00'),
  ('N#Cc1cccc(F)c1-c1cc(-n2ccc(N3CCCC(N)C3)n2)c2c(n1)CNC2=O (stereo not shown)', '8.00 to 10.00'),
  ('CN1CCO[C@@H]2CN(c3ccn(-c4cc(-c5c(F)cccc5C#N)nc5c4C(=O)NC5)n3)C[C@@H]21', '8.00 to 10.00'),
  ('N#Cc1cccc(F)c1-c1cc(-n2ccc(N3CC[C@H](O)C3)n2)c2c(n1)CNC2=O', '8.00 to 10.00'),
  ('CO[C@H]1CN(c2ccn(-c3cc(-c4c(F)cccc4C#N)nc4c3C(=O)NC4)n2)CC[C@H]1OC', '8.00 to 10.00');

Attention now turns to another entry.
Need pKi, item CC(C)c1ncn(-c2cc(-c3c(F)cccc3C#N)nc3c2C(=O)NC3)n1
≤ 6.00
